# target-under-test: Patatin-like phospholipase domain-containing protein 2 (Mus musculus, UniProt Q8BJ56)
# Sequence (Q8BJ56 whole entry): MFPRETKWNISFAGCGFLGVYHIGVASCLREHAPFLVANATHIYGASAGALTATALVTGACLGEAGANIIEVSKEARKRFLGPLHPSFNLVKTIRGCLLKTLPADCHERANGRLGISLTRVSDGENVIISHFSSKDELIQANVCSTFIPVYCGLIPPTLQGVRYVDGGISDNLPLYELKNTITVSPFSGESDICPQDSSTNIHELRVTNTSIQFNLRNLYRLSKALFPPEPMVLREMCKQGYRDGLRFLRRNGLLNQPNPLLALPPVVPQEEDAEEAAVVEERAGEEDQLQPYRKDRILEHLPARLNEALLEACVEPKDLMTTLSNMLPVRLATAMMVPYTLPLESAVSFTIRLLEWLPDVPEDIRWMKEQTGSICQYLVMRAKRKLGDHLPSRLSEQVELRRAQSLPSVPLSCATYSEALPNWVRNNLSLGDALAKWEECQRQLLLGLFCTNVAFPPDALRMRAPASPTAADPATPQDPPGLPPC
# protocol-details: Inhibition of mouse recombinant ATGL expressed in African green monkey COS7 cells assessed as reduction in triglyceride hydrolase activity using radio-labelled triolein substrate incubated for 1 hr by liquid scintillation counting
pIC50: −log10 of the molar value.
outcome-measure: pIC50

Brc1ccccc1/C=N/N1CCN(c2ccccc2)CC1 = < 3.82
Cc1cccc(N2CCN(/N=C/c3ccc(O)cc3O)CC2)c1 = < 3.70

Proceeding to the next compound to report its pIC50.
Summary line: "Oc1ccc(/C=N/N2CCN(c3ccncc3)CC2)c(O)c1" , Patatin-like phospholipase domain-containing protein 2 (Mus musculus, UniProt Q8BJ56), reported pIC50 = < 3.70
